TESTED_TARGET: CYP1A (Homo sapiens)
Construct: Two studies were conducted in human liver microsomes (HLM); tissue Eurofins G232 panel; host or cells: human liver microsomes
Sequence (P05177 whole entry): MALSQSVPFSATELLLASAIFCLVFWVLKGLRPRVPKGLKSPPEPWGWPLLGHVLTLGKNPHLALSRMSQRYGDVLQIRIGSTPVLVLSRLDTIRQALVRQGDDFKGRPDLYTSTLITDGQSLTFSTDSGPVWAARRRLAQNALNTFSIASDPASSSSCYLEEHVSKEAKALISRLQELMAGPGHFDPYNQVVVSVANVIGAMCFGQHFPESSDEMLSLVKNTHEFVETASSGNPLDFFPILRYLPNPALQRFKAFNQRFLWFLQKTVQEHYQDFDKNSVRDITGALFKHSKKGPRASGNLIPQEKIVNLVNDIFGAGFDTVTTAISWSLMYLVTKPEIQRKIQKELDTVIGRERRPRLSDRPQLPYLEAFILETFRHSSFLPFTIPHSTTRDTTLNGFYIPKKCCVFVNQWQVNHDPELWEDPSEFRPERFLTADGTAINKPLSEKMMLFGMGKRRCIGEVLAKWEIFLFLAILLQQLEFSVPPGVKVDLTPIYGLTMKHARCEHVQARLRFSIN
TEST_DESCRIPTION: CYP1A inhibition (HLM) phenacetin
Type: in vitro ADME
EXPERIMENTAL_PARAMETERS: phenacetin, from one-point % inhibition at 10 μM, IC50=[I]*(100−P)/P, read-out: Estimated IC50
RESULT_TYPE: pIC50
One number for each entry, as −log10 of the molar value.

Test item `Cc1ncc(CN2CCOCC2)c(-c2ncc[nH]2)c1O` ; CYP1A (Homo sapiens); reported pIC50 was 4.28

---

TESTED_TARGET: CYP2C19 (Homo sapiens)
Construct: Two studies were conducted in human liver microsomes (HLM); tissue Eurofins G232 panel; host or cells: human liver microsomes
Sequence (P33261 whole entry): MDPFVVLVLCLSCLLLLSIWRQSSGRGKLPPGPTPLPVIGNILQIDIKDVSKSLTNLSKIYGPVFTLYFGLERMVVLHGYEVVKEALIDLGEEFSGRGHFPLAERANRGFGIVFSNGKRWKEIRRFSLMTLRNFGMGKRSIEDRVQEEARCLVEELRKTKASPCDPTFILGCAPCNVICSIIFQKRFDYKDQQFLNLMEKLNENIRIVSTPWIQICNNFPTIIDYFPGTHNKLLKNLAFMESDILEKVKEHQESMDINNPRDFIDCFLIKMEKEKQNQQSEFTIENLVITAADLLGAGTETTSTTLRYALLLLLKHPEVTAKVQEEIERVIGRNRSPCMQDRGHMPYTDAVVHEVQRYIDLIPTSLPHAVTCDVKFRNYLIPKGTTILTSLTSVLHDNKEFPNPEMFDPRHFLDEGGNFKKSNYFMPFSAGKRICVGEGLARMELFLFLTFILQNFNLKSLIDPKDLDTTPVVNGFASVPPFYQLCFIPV
TEST_DESCRIPTION: CYP2C19 inhibition (HLM), omeprazole
Format: in vitro ADME
EXPERIMENTAL_PARAMETERS: omeprazole, from one-point % inhibition at 10 μM, IC50=[I]*(100−P)/P, read-out: Estimated IC50
Procedure: Compound 5 (PTG-630 free base) and 7 additional compounds for CYP3A P450 inhibition. Two studies were conducted in human liver microsomes (HLM). Lead candidate PTG-630 was tested using the Eurofins G232 panel (Drug Metab Dispos. 2001 January; 29(1):23-9), where inhibition was measured against seven CYP enzymes; CYP3A4 was tested using two different substrates, midazolam and testosterone. In a second study, inhibition of CYP3A4 (midazolam substrate only) was compared for 8 compounds of interest. […]
RESULT_TYPE: pIC50
Numbers only, as −log10 of the molar value.

So for `Cc1ncc(CN2CCOCC2)c(-c2ncc[nH]2)c1O` , the logged pIC50 turned out to be 4.58
